Study System: human GPR40 (Homo sapiens, UniProt O14842)
Construct: expressed in transfected cells; host or cells: HEK cells stably expressing the aequorin reporter
Sequence (O14842 whole entry): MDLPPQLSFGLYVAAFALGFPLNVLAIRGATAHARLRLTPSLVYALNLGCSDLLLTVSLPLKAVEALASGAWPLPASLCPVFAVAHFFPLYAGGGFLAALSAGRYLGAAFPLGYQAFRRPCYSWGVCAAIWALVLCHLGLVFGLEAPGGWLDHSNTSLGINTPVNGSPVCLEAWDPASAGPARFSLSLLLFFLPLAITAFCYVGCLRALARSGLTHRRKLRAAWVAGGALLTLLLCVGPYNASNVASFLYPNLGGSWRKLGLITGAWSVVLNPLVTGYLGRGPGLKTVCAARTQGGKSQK
Assay Details: Inositol Phosphate Turnover (IP1) Assay 1
Type: cell-based
Assay Context: HEK cells stably expressing human GPR40; compound transferred via pocket tip; 60 minutes at 37 degrees
Listing of recorded EC50 by entry.
Readout Label: EC50 (nM)

- C[C@H](C(=O)O)[C@H](c1ccc2c(c1)CC(c1ccc(-c3cccc(OC4CC4)c3)cc1)CO2)C1CC1 (stereo partly shown): 250
- COc1ccc(F)c(-c2ccc(C3Cc4cc([C@H](C5CC5)[C@H](C)C(=O)O)ccc4S(=O)(=O)C3)cc2)c1 (stereo partly shown): 69
- COc1ccc(F)c(-c2ccc(C3CSc4ccc([C@H](C5CC5)[C@H](C)C(=O)O)cc4C3)cc2)c1 (stereo partly shown): 6.9
- COc1ccc(F)c(-c2ccc(C3COc4ccc([C@@H](C5CC5)[C@@H](C)C(=O)O)cc4C3)cc2)c1 (single isomer, unassigned) [Example 9]: 60
- COc1cc(-c2ccc(C3COc4ccc([C@H](C5CC5)[C@H](C)C(=O)O)cc4C3)c(F)c2)ccn1 (stereo partly shown): 32
- COc1ccc(F)c(-c2ccc(C3COc4ccc(C(CC(=O)O)C5CC5)cc4C3)cc2)c1 (single isomer, unassigned) [Example 4]: 75
- COc1cc(-c2ccc(C3COc4ccc([C@H](C5CC5)[C@H](C)C(=O)O)cc4C3)cc2)c(F)cn1 (single isomer, unassigned) [Example 10]: 13

----------
Study System: human GPR40 (Homo sapiens)
Construct: expressed in transfected cells; host or cells: HEK cells stably expressing the aequorin reporter
Assay Details: Inositol Phosphate Turnover (IP1) Assay 1
Type: cell-based
Assay Context: HEK cells stably expressing human GPR40; compound transferred via pocket tip; 60 minutes at 37 degrees
Assign labels as follows, please: yes (1) for EC50 below 200 nM; no (0) for EC50 equal to or exceeding 200 nM.

• C[C@H](C(=O)O)[C@H](c1ccc2c(c1)CC(C1CCN(Cc3cc(C(F)(F)F)ccc3C(F)(F)F)CC1)CO2)C1CC1 (stereo partly shown) = no (0)
• COc1ccc(F)c(-c2ccc(C3Cc4cc(C(CC(=O)O)C5CC5)ccc4CO3)cc2)c1 (mixture of isomers) = no (0)
• COc1cc(-c2ccc(C3COc4ccc([C@H](C5CC5)[C@H](C)C(=O)O)cc4C3)cc2)c(F)cn1 (single isomer, unassigned) [Example 11] = yes (1)
• COc1ccc(F)c(-c2ccc(C3CCc4ccc(C(C5CC5)C(C)C(=O)O)cc4C3)cc2)c1 (stereo not shown) = yes (1)
• COc1ccc(F)c(-c2ccc(C3COc4ccc([C@@H](C5CC5)[C@@H](C)C(=O)O)cc4C3)cc2)c1 (single isomer, unassigned) [Example 8] = yes (1)
• COc1cc(-c2ccc(C3COc4ccc([C@H](C5CC5)[C@H](C)C(=O)O)cc4C3)cc2)ccn1 (single isomer, unassigned) [Example 15] = yes (1)
• COc1cc(-c2ccc(C3COc4ccc([C@H](C5CC5)[C@H](C)C(=O)O)cc4C3)cc2)ccn1 (stereo partly shown) [Example 12] = yes (1)
• COc1ccc(F)c(-c2ccc(C3COc4ccc(C(CC(=O)O)C5CC5)cc4C3)cc2)c1 (stereo not shown) [Example 1] = yes (1)
• COc1ccc(F)c(-c2ccc(C3Cc4cc([C@H](C5CC5)[C@H](C)C(=O)O)ccc4C(=O)O3)cc2)c1 (stereo in doubt) = yes (1)
• COc1ccc(F)c(-c2ccc([C@@H]3Cc4cc([C@H](C5CC5)[C@H](C)C(=O)O)ccc4C(=O)O3)cc2)c1 = no (0)
• COc1ccc(F)c(-c2ccc(C3COc4ccc([C@H](C5CC5)[C@H](C)C(=O)O)cc4C3)cc2)c1 (single isomer, unassigned) [Example 6] = yes (1)
• Cc1cccc(C)c1-c1ccc(C2COc3ccc([C@H](C4CC4)[C@H](C)C(=O)O)cc3C2)cc1 (stereo partly shown) = no (0)
• COc1ccc(F)c(-c2ccc(C3COc4ccc(C(CC(=O)O)C5CC5)cc4C3)cc2)c1 (single isomer, unassigned) [Example 3] = no (0)
